- System: Streptococcus pneumoniae
- measurement.protocol: Antibacterial activity against Streptococcus pneumoniae ATCC 6301
- Type: functional
Kindly supply the reported MIC values for the records listed here.
Give bare numbers, in µg/mL.

{"molecule": "O=C(O)c1cn(C2CC2)c2cc(N3CCNCC3)c(F)cc2c1=O", "measured.property": "MIC", "unit.abbreviation": "µg/mL", "reported.value": 1}

# batch: return MIC for each of the 3 molecules below
1. CCO/N=C1\CCN(c2c(F)cc3c(=O)c(C(=O)O)cn(CC)c3c2F)CC1CN (racemic)
2. CCn1cc(C(=O)O)c(=O)c2cc(F)c(N3CC/C(=N\OC)C(CN)C3)c(F)c21 (racemic)
3. CO/N=C1\CCN(c2c(F)cc3c(=O)c(C(=O)O)cn(C4CC4)c3c2OC(F)F)CC1CN (racemic)

Response:
1. 64
2. 32
3. 4
